Below, each entry is listed alongside its reported TGI.
Tested on: PC-3 prostate
Assay: NCI tumour cell line growth inhibition, 48 h
// return numeric value only (unit: µM, not printed)

Answered cases to consult:
INSERT INTO results (compound, reported) VALUES
  ('NS(=O)(=O)c1ccc(C2C3=C(CCCC3=O)OC3=C2C(=O)c2ccccc2C3=O)cc1 (centres undefined)', 1.33),
  ('C[C@H](CC[C@@H](O)C(C)(C)O)[C@H]1CC[C@@]2(C)[C@@H]3CC=C4[C@@H](CC[C@H](O)C4(C)C)[C@]3(C)C(=O)C[C@]12C', 45.4),
  ('OCCCCC#Cc1ccccc1C#Cc1ccccc1F', 48.2);

Asked: Fill blank: measured TGI of the compound NC(N)=N/N=C/c1c(-c2cccs2)nc2sccn12 is ____.
Given back: 23.1

---

Test system: EKVX NSCLC
Assay: NCI tumour cell line growth inhibition, 48 h
Where a SMILES comes first, the peptide text is derived from it. [ ]: non-standard residue; d: D form. The star is where a group is joined. ξ: configuration not given here. ξD = NC(CC(=O)O)C(=O)O; Ac3c = NC1(C(=O)O)CC1; Boc = CC(C)(C)OC(=O)*; OBn = c1ccc(CO*)cc1
reported.endpoint: TGI

Example compounds with recorded TGI:
INSERT INTO measurements (compound, reported) VALUES
  ('Cc1ccc2c[c]1[Hg][CH2]COS2(=O)=O', '38.5 µM'),
  ('Oc1ccc2c(c1)CC[N+]1=C2CCC2CCCC21 (centres undefined)', '> 100 µM'),
  ('O=c1[nH]c(=O)n(COCc2ccccc2)c2ccc([N+](=O)[O-])cc12', '> 100 µM'),
  ('[N-]=[N+]=NC1CC(n2cc(COCC(F)(F)F)c(=O)[nH]c2=O)OC1CO (centres undefined)', '> 100 µM'),
  ('Cn1c(-c2ccc[se]2)ccc1-c1ccc(CO)[se]1', '> 100 µM'),
  ('Oc1ccc2occ3c2c1CCC3', '> 100 µM'),
  ('CC(=Nc1c2ccccc2nc2ccccc12)N(C)C', '> 100 µM'),
  ('CCN(CC)C(=S)N/N=C/c1ccccn1', '> 100 µM'),
  ('CC(NC1=NCCO1)c1cccc([N+](=O)[O-])c1 (centres undefined)', '> 100 µM'),
  ('CC1(C)CN(c2ccccc2)C(=O)C1OC(=O)[C@@]1(C)C[C@@H]2C=C[C@H]1C2 (some centres undefined)', '59.9 µM');

Asked: Would you kindly share the measured TGI for OCCN(CCO)c1cccc(N(CCO)CCO)c1 ?
Given back: > 100 µM

Asked: Which value of TGI has been reported for ON(CCc1ccncc1)Cc1ccccc1 in the records?
Given back: > 100 µM

Asked: Data request, read-out TGI, for COc1ccccc1/C=C1\CCC(CNc2ccc(Cl)cc2)C1=O (centres undefined)
Given back: 20.2 µM

Asked: I have this compound here, COC(=O)C1(NC(=O)C(CC(=O)OCc2ccccc2)NC(=O)OC(C)(C)C)CC1 (centres undefined) (Boc-[ξD](OBn)-[Ac3c]-OMe) , and I need its recorded TGI.
Given back: > 100 µM

Asked: Given the entry Cc1cn(CC2=NCCCN2)c(=O)[nH]c1=O , report its measured TGI.
Given back: > 100 µM

Asked: Query: TGI; subject: COc1ccc(C2=CC(c3cc(OC)c(OC)c(OC)c3)NC(=O)N2)cc1OC (centres undefined)
Given back: 23.2 µM

Asked: // lookup TGI for CC(NC(=O)OCc1ccccc1)NC(=O)C(CC(=O)OC(C)(C)C)NC(=O)OC(C)(C)C (centres undefined)
Given back: > 100 µM

Asked: Can you share its TGI? I mean this compound: C=C(CC(=O)Nc1ccc(C(=O)OC)o1)C(=O)OC
Given back: 45 µM

Asked: Which TGI is reported for this compound? CSc1nc(NC2OCC(O)C(O)C2O)c(N)c(=O)n1C (centres undefined)
Given back: > 100 µM

Asked: Look up TGI for this compound: O=c1[nH]c2cc3cccnc3c(Cl)c2nc1C(F)(F)F
Given back: > 100 µM

Asked: Quick one: TGI for COC(=O)/C=C\C(C#N)(C#N)N=Cc1ccc(C)s1 ?
Given back: 15.3 µM

Asked: Look up TGI: Cc1cc2c(cc1C)[n+](=O)c(C(=O)/C=C/c1ccc(Cl)cc1)c(C)n2[O-]
Given back: > 100 µM

Asked: # TGI lookup, item CC(C)(C)OC(=O)NC(Cc1ccc(O)cn1)C(N)=O (centres undefined)
Given back: > 100 µM

Asked: Which TGI is reported for this compound? CCOC(=O)c1c2c(n3ccc(NC(=O)OC(C)(C)C)cc13)C(=O)c1ncccc1C2=O
Given back: 2.03 µM

---

System: OVCAR-5 ovarian
Test: NCI tumour cell line growth inhibition, 48 h
Measured TGI, listed per entry.

Asked: Endpoint output: TGI of CN(C)CCOC(=O)c1ccc(N)cc1 . Value?
Given back: > 100 µM

---

Reported TGI values for a set of molecules
System: HS 578T breast
Test: NCI tumour cell line growth inhibition, 48 h
Lab book: enter the figure in µM, no units written.

INSERT INTO assay_data (molecule, reported) VALUES
  ('O=C(Nc1ccc(Cl)cc1)c1cc2c(cc1O)[nH]c1ccccc12', 14.5);

Asked: Lab note: need TGI for O=C(CN1CCCCC1)c1ccc2c(c1)Sc1ccccc1O2 on HS 578T breast, anyone have it?
Given back: 21.6

---

Test system: HCT-116 colon
Experiment: NCI tumour cell line growth inhibition, 48 h
Where a SMILES comes first, the peptide text is derived from it. The star is where a group is joined. Boc = CC(C)(C)OC(=O)*
reported.endpoint: TGI

Example cases with answers are listed next.
INSERT INTO assay_data (compound, reported_endpoint, reported) VALUES
  ('NCCNCCCCCCNC(=O)c1cccc2cc3ccccc3nc12', 'TGI', '6.33 µM'),
  ('O=c1[nH]c(-c2ccccc2)nc2ccc(Cl)cc12', 'TGI', '> 100 µM'),
  ('Cc1cc(NS(=O)(=O)c2ccc(NC(=O)c3cccc4c(NNc5ccc(S(=O)(=O)N=C(N)N)cc5)c5ccccc5nc34)cc2)no1', 'TGI', '> 100 µM'),
  ('COCN1CCN=c2c1c1c3c(c4ccccc4n23)CCC1', 'TGI', '> 100 µM'),
  ('CC1(C)[C@@H](Cn2cnc3c(=O)[nH]c(N)nc32)CC[C@@]1(C)CO', 'TGI', '> 100 µM'),
  ('CCCCCCCCCCCCCC[P+](CCCCCC)(CCCCCC)CCCCCC', 'TGI', '> 100 µM'),
  ('OCC(Cn1cncn1)(c1ccc(F)cc1F)n1cncn1 (stereo not drawn)', 'TGI', '> 100 µM'),
  ('COC(=O)C(Cc1c[nH]c2ccccc12)NC(=O)C(Cc1c[nH]c2ccccc12)NC(=O)C(Cc1c[nH]c2ccccc12)NC(=O)C(Cc1c[nH]c2ccccc12)NC(=O)OC(C)(C)C (stereo not drawn) (Boc-WWWW-OMe; configuration not given here)', 'TGI', '44.2 µM'),
  ('Cc1ccc(NC(=S)Nc2c(C)n(C)n(-c3ccccc3)c2=O)cc1', 'TGI', '> 100 µM'),
  ('CN(C)/C=C/c1nnnn1-c1ccc(Cl)cc1', 'TGI', '37.3 µM');

Asked: GET /values?readout=TGI&item= CC1=C(C)CC2(SC1)C(=O)c1ccccc1C2=O
Given back: > 100 µM

Asked: Request the reported TGI associated with CC(C)(C)n1c(=O)n(C(=O)C(Cl)(Cl)Cl)n(C(=O)C(Cl)(Cl)Cl)c1=O
Given back: > 100 µM

Asked: Quick one: TGI for O=C1CCCC2=C1C(c1ccc3c(c1)OCO3)Nc1ccc3ccccc3c12 (stereo not drawn) ?
Given back: > 100 µM

Asked: What measured TGI goes with COC(=O)Nc1nc2ccc(Oc3ccc(NC(=O)Nc4cccc(Br)c4)cc3)cc2[nH]1 ?
Given back: > 12.6 µM

---

System: UO-31 renal
Experiment: NCI tumour cell line growth inhibition, 48 h
# TGI per entry
Report only the number, with the unit µM understood.

Illustrative cases are given below, each with its answer.
INSERT INTO measurements (compound, measured_on, reported_endpoint, reading_unit, reported) VALUES
  ('O=C1c2ccccc2C(=O)c2c1ccc1c2N=C(c2ccc(F)cc2)CC(c2ccc(Cl)c(Cl)c2)N1 (centres undefined)', 'UO-31 renal', 'TGI', 'µM', 23.5),
  ('Cc1cc(Nc2ccc(N=Nc3ccc(O)c4ncccc34)cc2)nc(C)n1', 'UO-31 renal', 'TGI', 'µM', 36.5);

Asked: Entry under review: CC(=N\O)/C(C)=N/O.CC(=N\O)/C(C)=N/O.CC(=N\O)/C(C)=N/O.CC(=N\O)/C(C)=N/O.[Cu].[Cu] . Reported TGI?
Given back: 27.3

Asked: // lookup TGI for CCN(CC)CC(=O)/C=C/c1ccc(C)cc1
Given back: 39.8

Asked: Entry C=C(CC(=O)Nc1ccc(C(=O)OC)o1)C(=O)OC has what TGI?
Given back: 39.5

Asked: Given the compound COc1ccc(/C=C2\CC3C4CC=C5C[C@@H](O)CC[C@]5(C)C4CC[C@]3(C)\C2=N\O)cc1OC (some centres undefined) , what is its reported TGI?
Given back: 9.97

Asked: Record request: TGI value, item CCCCCCOc1ccc(/C=N/NC(N)=S)cc1
Given back: 3.66

Asked: Request the reported TGI associated with COC(=O)c1ccc(CCc2cc(O)ccc2O)cc1
Given back: 7.04
